Hello, the source for this data is PubChem BioAssay (NCI), in case you need it.

# System: SN12C renal
# assay-protocol: NCI tumour cell line growth inhibition, 48 h
endpoint-name: TGI

Ask: State its TGI: `CCN(Cc1c(F)cccc1C(F)(F)F)c1ccc(CO)c(Cl)c1`
Result: 26.2 µM

Ask: State its TGI: CN(C)CC(O)CNC(=O)Nc1ccccc1 (stereo unspecified)
Result: > 100 µM

Ask: State its TGI: CSCCC(NOC(=O)Cc1ccccc1)P(=O)(O)c1ccccc1 (stereo unspecified)
Result: > 100 µM

Ask: State its TGI: `Cc1ccc2c(c1)n([O-])c(C(F)(F)F)c(C(=O)c1ccco1)[n+]2=O`
Result: 2.5 µM

Ask: State its TGI: CC#CC#C/C=C1/C=CC2(CCCCO2)O1 (stereo unspecified)
Result: > 100 µM

Ask: State its TGI: `O=Cc1cc2sc(C=O)cc2s1`
Result: > 100 µM

Ask: State its TGI: `COc1cc2cc(C(=O)Nc3ccccc3)c(N)nc2cc1OC`
Result: > 100 µM

Ask: State its TGI: CC(=O)O[C@H]1C(=O)[C@@]2(C)C(C(OC(=O)c3ccccc3)[C@]3(O)CC(OC(=O)C(O)C(NC(=O)c4cccc(Cl)c4)c4ccccc4)C(C)=C1C3(C)C)[C@]1(OC(C)=O)CO[C@@H]1C[C@@H]2O (stereo partly specified)
Result: > 10 µM

Ask: State its TGI: `C#CCN(Cc1ccc2nc(-c3ccccc3)c(Cl)nc2c1)c1ccc(Cl)c(Cl)c1`
Result: > 100 µM

Ask: State its TGI: `Cc1ccccc1N=C(c1ccccc1)C1C(=O)c2ccccc2C1=O`
Result: > 100 µM

Ask: State its TGI: `CN1CCN(CCCn2c3c(sc4ncccc43)c(=O)n3nnc(-c4ccccc4)c23)CC1`
Result: 28.8 µM

* * *

# System: UO-31 renal
# assay-protocol: NCI tumour cell line growth inhibition, 48 h
Let's look at some compounds and their measured GI50.

>>> observed_value("CN1CCN(CCCn2c3c(sc4ncccc43)c(=O)n3nnc(-c4ccccc4)c23)CC1")
"0.802 µM"
>>> observed_value("Clc1ccc(Nc2nnc(COc3ccccc3)c3ccccc23)cc1")
"0.727 µM"

Ask: State its GI50: `C=C1C(=O)O[C@H]2[C@H]1CC/C(COC(=O)NCCc1ccc(Br)cc1)=C\CC[C@@]1(C)O[C@@H]21`
Result: 1.55 µM

Ask: State its GI50: `Cc1ccccc1N=C(c1ccccc1)C1C(=O)c2ccccc2C1=O`
Result: 4.14 µM

Ask: State its GI50: C=C1[C@H](O)C[C@@H](C(C)C(O)CC=C(C)C)[C@@H](O)[C@@H]2C(C)=CC[C@@H]12 (stereo partly specified)
Result: > 100 µM

Ask: State its GI50: `CC(C)Cc1cc(-c2cccn2C)c(C#N)c(=O)[nH]1`
Result: > 100 µM

Ask: State its GI50: `COc1cc(-c2cc(-c3ccc(Nc4nc(Nc5ccc(Cl)cc5)nc(Nc5ccc(Cl)cc5)n4)cc3)no2)cc(OC)c1OC`
Result: 6 µM

Ask: State its GI50: `Nc1ncnc2c1ncn2Cc1ccc(CCl)cc1`
Result: 22.3 µM

Ask: State its GI50: `O=C(Nc1n[nH]c2cc(-c3ccc(F)cc3)ccc12)C1CC1`
Result: 3.74 µM

Ask: State its GI50: Nc1nc(N)c2c(n1)NC(c1ccc(Cl)cc1)C1CCc3ccccc3C1=N2 (stereo unspecified)
Result: 3.63 µM

Ask: State its GI50: `COc1ccc(COc2ccc(Cc3cnc(N)nc3N)cc2OC)cc1`
Result: 11.9 µM

Ask: State its GI50: Cc1cc(C2CC(O)C(CO)O2)c(Br)cc1Br (stereo unspecified)
Result: > 100 µM

Ask: State its GI50: `COc1cc2cc(C(=O)Nc3ccccc3)c(N)nc2cc1OC`
Result: 25.7 µM

* * *

# Tested on: SR leukemia
# assay-protocol: NCI tumour cell line growth inhibition, 48 h
Let's look at some molecules and their measured TGI.

Previously resolved entries follow.
>>> observed_value("COc1cc(OC)c(OC)cc1/C=C/c1ccc2ccccc2n1")
"> 10 µM"
>>> observed_value("O=C1C2Cc3ccccc3CN2C(=O)N1CN1CCCCC1 (configuration not stated)")
"> 100 µM"
>>> observed_value("O=c1[nH]c(=O)n(C2C[C@@H](O)[C@@H](CO)O2)cc1F (some centres not stated)")
"> 38.1 µM"
>>> observed_value("CC1(/C=C/c2ccc(-c3ccccc3)cc2)CCn2cnc3ncnc(c32)N1O (configuration not stated)")
"> 100 µM"

Ask: State its TGI: `COC(=O)[C@@]1(Cc2ccc(OC(C)=O)cc2)Cc2cc3ccccc3n2N1`
Result: 70.6 µM

Ask: State its TGI: Cc1[nH]c(-c2ccccc2)c(O)c1C(=O)OC1CC(C)CCC1C(C)C (configuration not stated)
Result: 34.7 µM

Ask: State its TGI: `CCn1c(C)nc([N+](=O)[O-])c1Sc1ncc[nH]1`
Result: > 100 µM

* * *

# System: BT-549 breast
# assay-protocol: NCI tumour cell line growth inhibition, 48 h
Let's look at some compounds and their measured TGI.

Previously resolved entries follow.
>>> observed_value("COc1cc2cc(C(=O)Nc3ccccc3)c(N)nc2cc1OC")
"> 100 µM"
>>> observed_value("O=C(Nc1cccc(Cl)c1)Nc1cc(C(F)(F)F)ccc1Cl")
"10.1 µM"

Ask: State its TGI: C#Cc1cccc(NC(=O)C2CCCCN2C(=O)CCl)c1 (stereo unspecified)
Result: 27.2 µM

Ask: State its TGI: OCC1OC(N2CCN(C3OC(CO)C(O)C(O)C3O)CC2)C(O)C(O)C1O (stereo unspecified)
Result: > 100 µM

Ask: State its TGI: `C=C1C(=O)O[C@H]2[C@H]1CC/C(COC(=O)NCCc1ccc(Br)cc1)=C\CC[C@@]1(C)O[C@@H]21`
Result: 2.6 µM

Ask: State its TGI: `Cn1cc(-c2nc(-c3c[nH]c4ccccc34)cs2)c2cccnc21`
Result: 17.8 µM

* * *

# Tested on: U251 CNS
# output must be one of TRUE (active), FALSE (inactive)

>>> label_class("O=C(COc1ccc(Cl)cc1Cl)NNc1ccc([N+](=O)[O-])cc1")
"FALSE"
>>> label_class("COC1C[C@H](O[C@@H]2C[C@H](O[C@@H]3C[C@H](O[C@@H]4C(=O)c5c(cc6cc(O[C@H]7C[C@@H](O[C@H]8C[C@@H](O)[C@H](O)C(C)O8)[C@H](O)C(C)O7)c(C)c(O)c6c5O)C[C@H]4C(OC)C(=O)[C@@H](O)[C@@H](C)O)OC(C)[C@H]3O)OC(C)[C@@H]2O)OC(C)[C@@H]1O (stereo partly drawn)")
"TRUE"
>>> label_class("Cc1ccccc1N=C(c1ccccc1)C1C(=O)c2ccccc2C1=O")
"FALSE"
>>> label_class("Nc1nc(N)c2c(n1)NC(c1ccc(Cl)cc1)C1CCc3ccccc3C1=N2 (stereo not drawn)")
"FALSE"

Ask: Hi, do you know how `COc1cc(/C=C/[N+](=O)[O-])cc(OC)c1` came out in this test?
Result: FALSE

Ask: Hi, do you know how `COc1cccc(/C=C/C(=O)c2cc3c(N)c(C(=O)Nc4ccccc4)sc3nc2C)c1` came out in this test?
Result: FALSE

Ask: Hi, do you know how `O=C(Nc1n[nH]c2cc(-c3ccc(F)cc3)ccc12)C1CC1` came out in this test?
Result: FALSE

Ask: Hi, do you know how `CCCCCCCN(CCCCCCC)C(=N)c1ccc(OC)c2ccccc12` came out in this test?
Result: FALSE

* * *

Let's look at some compounds and their measured TGI.
# Test system: LOX IMVI melanoma
# assay-protocol: NCI tumour cell line growth inhibition, 48 h
Express it in µM; write the number only.

>>> observed_value("CCN1CCC(O)(/C=C/c2ccc(Cl)c(Cl)c2)C(C(=O)/C=C/c2ccc(Cl)c(Cl)c2)C1 (stereo not drawn)")
2.02
>>> observed_value("CCc1cc2c(cc1O)CC[C@@H]1[C@@H]2CC[C@]2(C)[C@@H](O)CC[C@@H]12")
26.6
>>> observed_value("CCOC1=C2N=C(C(CC)c3ccc(F)cc3)N=C2C(=O)c2ccccc21 (stereo not drawn)")
29.7
>>> observed_value("O=C1/C(=C/Cc2ccco2)N=C(c2ccccc2)N1c1nc2ccc(Sc3ccccc3)cc2[nH]1")
43.7
>>> observed_value("C/C=C1/CN2CCC34c5ccccc5N5C(=O)C(C6CC78c9ccccc9N9C(=O)C=CC(C%10CC7N6C/C%10=C/C)C98)=CC(C1CC23)C54 (stereo not drawn)")
26
>>> observed_value("Cc1cc(NCCCCCCCCNc2cc(C)nc3cc(N(C)C)ccc23)c2ccc(N(C)C)cc2n1")
8.99

Ask: State its TGI: Cc1ccc(S(=O)(=O)N(CC(O)COc2ccccc2)c2ccccc2Cl)cc1 (stereo not drawn)
Result: 38.8

Ask: State its TGI: C=C1CC2(CC(c3ccccc3C)OC(c3ccccc3C)C2)OC1=O (stereo not drawn)
Result: 3.05

Ask: State its TGI: `O=S1(=O)OCCOS(=O)(=O)C1C1c2ccccc2-c2ccccc21`
Result: 89

Ask: State its TGI: `CN1c2cccc[c]2[Sn]([CH3])([CH3])[c]2ccccc21`
Result: 0.0304

Ask: State its TGI: COC1C[C@H](O[C@@H]2C[C@H](O[C@@H]3C[C@H](O[C@@H]4C(=O)c5c(cc6cc(O[C@H]7C[C@@H](O[C@H]8C[C@@H](O)[C@H](O)C(C)O8)[C@H](O)C(C)O7)c(C)c(O)c6c5O)C[C@H]4C(OC)C(=O)[C@@H](O)[C@@H](C)O)OC(C)[C@H]3O)OC(C)[C@@H]2O)OC(C)[C@@H]1O (stereo partly drawn)
Result: 0.168
